Quick record of IC50 values for Metabotropic glutamate receptor 5 (Rattus norvegicus, UniProt P31424).
readout: IC50

{"columns": ["molecularString", "result"],
 "data": [
  ["N#Cc1cccc(-n2ccc(OCCOc3ccccc3)cc2=O)c1", "6.02 µM"],
  ["O=c1nc(OCCOc2ccccc2)ccn1-c1cccc(F)c1", "3.54 µM"],
  ["O=c1cc(OCCOc2ncccc2Cl)ccn1-c1ccc(F)cc1", "7.82 µM"],
  ["N#Cc1cc(F)cc(-n2ccc(OCCOc3ccccc3)cc2=O)c1", "1.31 µM"],
  ["O=c1nc(OCCOc2ccccc2)ccn1-c1ccc(F)c(F)c1", "0.427 µM"],
  ["O=c1cc(OCCOc2cc(Cl)ccn2)ccn1-c1ccc(F)cc1", "8.8 µM"],
  ["O=c1nc(OCCOc2ccccc2)ccn1-c1ccc(F)cc1", "1.19 µM"]
]}
